TARGET ENTITY: human cannabinoid receptor 1 (huCB1), full length, expressed on cells (human, UniProt P21554 1-472)
Sequence (P21554 whole entry): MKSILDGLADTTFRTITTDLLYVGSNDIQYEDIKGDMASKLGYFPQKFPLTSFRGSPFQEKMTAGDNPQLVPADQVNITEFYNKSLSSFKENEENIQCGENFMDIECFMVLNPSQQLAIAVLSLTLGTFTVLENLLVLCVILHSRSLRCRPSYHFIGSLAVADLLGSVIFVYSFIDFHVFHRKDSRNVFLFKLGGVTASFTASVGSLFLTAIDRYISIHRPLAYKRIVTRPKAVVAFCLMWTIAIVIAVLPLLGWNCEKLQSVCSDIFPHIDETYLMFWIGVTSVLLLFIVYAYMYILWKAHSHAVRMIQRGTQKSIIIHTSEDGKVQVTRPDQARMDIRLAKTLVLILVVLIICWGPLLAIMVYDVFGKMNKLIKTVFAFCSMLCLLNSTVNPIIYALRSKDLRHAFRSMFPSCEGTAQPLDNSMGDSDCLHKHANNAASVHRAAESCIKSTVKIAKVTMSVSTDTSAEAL
EXPERIMENT DESCRIPTION: cell-based or functional assay
MEASURE NAME: n = 1 IC50 (nM), cAMP antagonist assay
Express it in nM; write the number only.

Entry LIBC527869-1 (antibody, V domains shown) VH: QVQLQESGPGLVKPSQTLSLTCTVSGGNIRRGGDYWAWIRQHPGKGLEWIGHIYHTGKTNYNPSFKGRATISVKTYKNQFSLKLSSVTAADTAVYYCARNYDTLSGNSYYYYGMDVWGQGTTVTVSS VL: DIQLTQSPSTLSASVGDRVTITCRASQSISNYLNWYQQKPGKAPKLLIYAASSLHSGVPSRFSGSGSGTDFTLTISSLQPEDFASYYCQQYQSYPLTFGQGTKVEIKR , n = 1 IC50 (nM), cAMP antagonist assay reported as 57.8

Entry LIBC527997-1 (antibody, V domains shown, Expressed as IgG1 SEFL2 mAb) VH: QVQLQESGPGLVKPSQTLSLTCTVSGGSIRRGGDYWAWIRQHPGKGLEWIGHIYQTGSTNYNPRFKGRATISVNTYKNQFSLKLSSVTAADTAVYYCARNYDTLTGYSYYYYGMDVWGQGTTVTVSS VL: DIQMTQSPSSLSASVGDRVTITCRASQSISNYLNWYQQKPGKAPKLLIYAASSLHSGVPSRFSGSGSGTDFTLTISSLQPEDFASYYCQQYQSYPLTFGQGTKVEIKR , n = 1 IC50 (nM), cAMP antagonist assay reported as 4.37

Entry LIBC528141-1 (antibody, V domains shown) VH: QVQLQESGPGLVKPSQTLSLTCTVSGGSIRRGGDYWSWIRQHPGKGLEWIGHVYQTGSTKYNPRFKGRATISVNTYKNQFSLKLSSVTAADTAVYYCARDYDILTGYSYYYYGMDVWGQGTTVTVSS VL: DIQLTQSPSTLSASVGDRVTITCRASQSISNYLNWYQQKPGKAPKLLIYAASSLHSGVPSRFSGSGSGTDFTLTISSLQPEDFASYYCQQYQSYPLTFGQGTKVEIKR , n = 1 IC50 (nM), cAMP antagonist assay reported as 6.26
